Source: patent US12168673B2

# ASSAY PROTOCOL: Human plasma protein binding (RED dialysis)
# PARTICULARS: human, plasma, % Unbound in plasma, human plasma, 10 μM, 5 hours dialysis
RECORDED ENDPOINT: fraction unbound at 5 h, 10 μM
Give your answer as a number; write no unit.

**Q:** Requested field: fraction unbound at 5 h, 10 μM. Item: COC(=O)[C@@H](C)NP(=O)(OC[C@H]1OC(OC(=O)c2cccnc2)[C@H](O)[C@@H]1O)Oc1ccccc1 (stereo partly shown)
**A:** 0.306

====

# ASSAY PROTOCOL: Human hepatocyte clearance
# Assay type: in vitro ADME
# PARTICULARS: human hepatocytes
Parameter half-life at 1 μM: see the listing below.

>>> meas_value("O=C(OC1O[C@H](CO)[C@@H](O)[C@H]1O)c1cccnc1 (some centres unmarked) [Compound 100]")
"2.38 h"

**Q:** Consider the compound shown here: O=C(OC[C@H]1OC(O)[C@H](O)[C@@H]1O)c1ccccn1 (some centres unmarked) [Compound 102] What is its recorded half-life at 1 μM?
**A:** 0.761 h
